tested on: BT-474; assay: drug sensitivity score (DSS), CellTiter-Glo (DSS (AUC-based score)); higher = stronger drug effect (viability inhibition or cytotoxicity); extreme values may be limits of the assay; conditions: incubation time: 72 h
MEASUREMENT LABEL: drug sensitivity score

The cases that follow already have their drug sensitivity score on record.
CO[C@H](C(=O)[C@@H](O)[C@@H](C)O)[C@@H]1Cc2cc3cc(O[C@H]4C[C@@H](O[C@@H]5C[C@@H](O)[C@H](O)[C@@H](C)O5)[C@H](O)[C@@H](C)O4)c(C)c(O)c3c(O)c2C(=O)[C@H]1O[C@H]1C[C@@H](O[C@@H]2C[C@@H](O)[C@@H](O[C@@H]3C[C@](C)(O)[C@H](O)[C@@H](C)O3)[C@@H](C)O2)[C@H](O)[C@@H](C)O1 [Plicamycin] :: 6.47
Cc1c(N)nc([C@H](CC(N)=O)NC[C@H](N)C(N)=O)nc1C(=O)N[C@H](C(=O)N[C@H](C)[C@@H](O)[C@H](C)C(=O)N[C@H](C(=O)NCCc1nc(-c2nc(C(=O)NCCC[S+](C)C)cs2)cs1)[C@@H](C)O)[C@@H](OC1OC(CO)C(O)C(O)C1OC1OC(CO)C(O)C(OC(N)=O)C1O)c1cnc[nH]1 (stereo partly drawn) [Bleomycin] :: 0

Here's the next entry for you.
Query :: Supply drug sensitivity score measured with BT-474 for CC(C)C[C@H](NC(=O)[C@H](CCc1ccccc1)NC(=O)CN1CCOCC1)C(=O)N[C@@H](Cc1ccccc1)C(=O)N[C@@H](CC(C)C)C(=O)[C@@]1(C)CO1 [Carfilzomib] .
Result :: 21.8

* * *

test system: MDA-MB-436; details: 72 h
MEASUREMENT LABEL: EC50, CellTiter-Glo (nM)
# value in nM; strip the unit string

The cases that follow already have their EC50, CellTiter-Glo on record.
Nc1nc(Cl)nc2c1ncn2[C@@H]1O[C@H](CO)[C@@H](O)[C@@H]1F [Clofarabine] :: 219
N[C@@H](Cc1ccc(N(CCCl)CCCl)cc1)C(=O)O [Melphalan] :: 501
CC[C@H](CC#N)OC(=O)N[C@@H](C)c1cccc(NC(=O)Nc2ccc(-c3cnco3)c(OC)c2)c1 [AVN944] :: 176
O=C(c1cc(Cc2n[nH]c(=O)c3ccccc23)ccc1F)N1CCN(C(=O)C2CC2)CC1 [Olaparib] :: 1040
Cc1c(N)nc([C@H](CC(N)=O)NC[C@H](N)C(N)=O)nc1C(=O)N[C@H](C(=O)N[C@H](C)[C@@H](O)[C@H](C)C(=O)N[C@H](C(=O)NCCc1nc(-c2nc(C(=O)NCCC[S+](C)C)cs2)cs1)[C@@H](C)O)[C@@H](OC1OC(CO)C(O)C(O)C1OC1OC(CO)C(O)C(OC(N)=O)C1O)c1cnc[nH]1 (some centres not stated) [Bleomycin] :: 5920

Query :: Determine its reported EC50, CellTiter-Glo: Cc1c(C(=O)Nc2ccc(N3C[C@@H](C)O[C@@H](C)C3)nc2)cccc1-c1ccc(OC(F)(F)F)cc1 [Erismodegib]
Result :: 636

Query :: Determine its reported EC50, CellTiter-Glo: CCc1cnn2c(NCc3ccc[n+]([O-])c3)cc(N3CCCC[C@H]3CCO)nc12 [Dinaciclib]
Result :: 9
